Give viability, T/C for every item shown.
Tested on: 855422-203-R-J1-PDC complex spheroid viability;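 note: spheroids exposed to compounds for seven days before readout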
protocol: Anticancer human tumor 855422-203-R-J1-PDC patient-derived bladder carcinoma cell line growth inhibition [POLQ]
measurementParameters: second compound 0.0316 µM; first compound 0.1 µM; hits give low values
Give the number; % is assumed, so skip it.

Ask: Please list viability, T/C recorded for the molecule C=CC(=O)N1CCN(c2nc(=O)n(-c3c(C)ccnc3C(C)C)c3nc(-c4c(O)cccc4F)c(F)cc23)C(C)C1 (stereo not given) + Nc1ccc(C#CCN(C(=O)Cc2ncc(C(F)(F)F)cc2C(F)(F)F)c2ccc(F)cc2)nn1
Reply: 116

Ask: Please report the measured viability, T/C for C=CCn1c(=O)c2cnc(Nc3ccc(N4CCN(C)CC4)cc3)nc2n1-c1cccc(C(C)(C)O)n1 + COC1C(OC(N)=O)C(O)C(Oc2ccc3c(O)c(NC(=O)c4ccc(O)c(CC=C(C)C)c4)c(=O)oc3c2C)OC1(C)C
Reply: 94.5

Ask: Provide measured viability, T/C value, entry: COc1ccc([C@@H](O)c2cc(-c3ncnc4cc(N5CCOCC5)ccc34)c(F)cc2Cl)nn1 + COC1C(OC(N)=O)C(O)C(Oc2ccc3c(O)c(NC(=O)c4ccc(O)c(CC=C(C)C)c4)c(=O)oc3c2C)OC1(C)C
Reply: 102

Ask: Please report the measured viability, T/C for COc1ccc([C@@H](O)c2cc(-c3ncnc4cc(N5CCOCC5)ccc34)c(F)cc2Cl)nn1 + Cc1cccc(N(C)C(=O)C2C(O)CCN2c2nc(C)cc(C(F)(F)F)c2C#N)c1
Reply: 109

Ask: Identify measured viability, T/C associated with COc1cccc2c1C(=O)c1c(O)c3c(c(O)c1C2=O)CC(O)(C(=O)CO)CC3OC1CC(N)C(O)C(C)O1 (stereo not given) + COC1C(OC(N)=O)C(O)C(Oc2ccc3c(O)c(NC(=O)c4ccc(O)c(CC=C(C)C)c4)c(=O)oc3c2C)OC1(C)C
Reply: 11.1

Ask: Quote viability, T/C reported for CC(C)n1c(=O)n(C)c2cnc3cc(F)c(-c4ccc(OCCCN5CCCCC5)nc4)cc3c21 + Cc1cccc(N(C)C(=O)C2C(O)CCN2c2nc(C)cc(C(F)(F)F)c2C#N)c1 please.
Reply: 113

Ask: Please supply the value of reported viability, T/C for the item CC1COCCN1c1cc(C2(S(C)(=N)=O)CC2)nc(-c2ccnc3[nH]ccc23)n1 (stereo not given) + COC1C(OC(N)=O)C(O)C(Oc2ccc3c(O)c(NC(=O)c4ccc(O)c(CC=C(C)C)c4)c(=O)oc3c2C)OC1(C)C
Reply: 118

Ask: Check the records and state viability, T/C for CCc1cc2c(N3CCc4c(cc(Cn5ccnc5)cc4-c4cn(C)nc4C(F)(F)F)C3=O)ccnc2c(OC)n1 + Nc1ccc(C#CCN(C(=O)Cc2ncc(C(F)(F)F)cc2C(F)(F)F)c2ccc(F)cc2)nn1
Reply: 142

Ask: # return recorded viability, T/C for input C#Cc1c(F)ccc2cc(O)cc(-c3ncc4c(N5CC6CCC(C5)N6)nc(OCC56CCCN5CC(F)C6)nc4c3F)c12 (stereo not given) + Cc1cccc(N(C)C(=O)C2C(O)CCN2c2nc(C)cc(C(F)(F)F)c2C#N)c1
Reply: 105

Ask: Give viability, T/C for COc1cc2cc(C(=O)CCC(=O)O)sc2cc1OC + Cc1cccc(N(C)C(=O)C2C(O)CCN2c2nc(C)cc(C(F)(F)F)c2C#N)c1
Reply: 118

// data source = PubChem BioAssay AID1963838
